- tested.system: adenosine A2A receptor (Homo sapiens, UniProt P29274)
- Sequence (P29274 whole entry): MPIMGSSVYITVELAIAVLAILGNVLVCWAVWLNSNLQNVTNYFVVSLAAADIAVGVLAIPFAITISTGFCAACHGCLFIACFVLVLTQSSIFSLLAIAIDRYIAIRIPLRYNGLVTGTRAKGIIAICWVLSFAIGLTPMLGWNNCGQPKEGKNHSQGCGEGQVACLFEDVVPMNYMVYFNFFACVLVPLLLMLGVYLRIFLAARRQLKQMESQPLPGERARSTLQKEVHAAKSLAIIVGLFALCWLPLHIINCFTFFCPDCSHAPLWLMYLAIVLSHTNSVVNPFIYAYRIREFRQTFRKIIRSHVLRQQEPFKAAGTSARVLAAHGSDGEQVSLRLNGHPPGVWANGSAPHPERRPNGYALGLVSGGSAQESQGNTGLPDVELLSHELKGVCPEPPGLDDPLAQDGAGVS
test.readout: pIC50
Just the number, please; pIC50 means minus log10 of the concentration in mol/L.

Ask: Supply pIC50 measured with adenosine A2A receptor (Homo sapiens, UniProt P29274) for NCCC(=O)N(CCc1c[nH]c2ccccc12)C(C(=O)Nc1ccccc1)c1ccc(Br)cc1Br (stereo not shown) [Compound 1:16] .
Reply: 7.51

----------
- tested.system: adenosine A2A receptor (Homo sapiens, UniProt P29274)
test.readout: pKi
Just the number, please; pKi means minus log10 of the concentration in mol/L.

Ask: Identify pKi associated with the compound NCCC(=O)N(CCc1c[nH]c2ccccc12)C(C(=O)Nc1ccccc1)c1ccc(Br)cc1Br (stereo not shown)
Reply: 7.76
